# Experimental System: CDK2 (Homo sapiens)
# Construct: host or cells: HEK293-CDK2-Hibit
# Run Description: HiBit Assay Protocol for CDK2 (HIBIT protein quantification, degradation)
# Type: cell-based
# Experimental Parameters: HEK293-CDK2-Hibit cells, compound treatment for 6 hours, ABS DC50
Readout Type: DC50 (nM)
State the answer as a number, implicitly in nM.

Quickly give me recorded DC50 for CC1CCCC1N1C(=O)C2(CC2)c2cnc(NC3CCN(S(=O)(=O)N4CC5(CCN(C(=O)CCCCc6ccc7c(c6)n(C)c(=O)n7C6CCC(=O)NC6=O)CC5)C4)CC3)nc21 (stereo not shown)
4

Return value of DC50 for input CC1CCCC1N1C(=O)C2(CC2)c2cnc(NC3CCN(S(=O)(=O)N4CC5(CN(CC6CCN(c7ccc8c(c7)n(C)c(=O)n8C7CCC(=O)NC7=O)CC6)C5)C4)CC3)nc21 (stereo not shown) , no commentary.
1.97

Quote DC50 reported for CC1CN(C(C)c2cccc(S(=O)(=O)N3CC[C@H](Nc4ncc5c(n4)N([C@@H]4CCC[C@@H](O)C4)C(=O)C54CC4)[C@H](F)C3)c2)CCC1c1ccc2c(N3CCC(=O)NC3=O)nn(C)c2c1 (stereo partly shown) please.
2.62

Hello, please tell me recorded DC50 for this one: C[C@@H]1CN(S(=O)(=O)c2cccc(CN3CCC(c4ccc5c(N6CCC(=O)NC6=O)nn(C)c5c4)CC3)c2)CC[C@H]1Nc1ncc2c(n1)N([C@@H]1CCC[C@@H](O)C1)C(=O)C21CC1
7.87

Specify measured DC50 for CC1CCCC1N1C(=O)C2(CC2)c2cnc(NC3CCN(S(=O)(=O)N4CCC5(CCN(C(=O)CCc6cccc7c6n(C)c(=O)n7C6CCC(=O)NC6=O)C5)C4)CC3)nc21 (stereo not shown) .
41

State its DC50 for this compound: Cn1nc(N2CCC(=O)NC2=O)c2ccc(N3CCN(Cc4cccc(S(=O)(=O)N5CCC(Nc6ncc7c(n6)N([C@@H]6CCC[C@@H](O)C6)C(=O)C76CC6)CC5)c4)CC3)cc21
5.47

Tell me its DC50 given Cn1c(=O)n(C2CCC(=O)NC2=O)c2ccc(N3CCN(Cc4cccc(S(=O)(=O)N5CCC(Nc6ncc7c(n6)N([C@@H]6CCC[C@@H](O)C6)C(=O)C76CC6)CC5)c4)CC3)cc21 (stereo partly shown) as the entry.
7.82

Return DC50 (reported value) for this compound: C[C@@H](c1cc(S(=O)(=O)N2CC[C@H](Nc3ncc4c(n3)N([C@@H]3CCC[C@@H](O)C3)C(=O)C43CC3)[C@H](F)C2)ccc1F)N1CCN(c2ccc3c(N4CCC(=O)NC4=O)nn(C)c3c2)CC1
12.1

Consider the compound CC1CCCC1N1C(=O)C2(CC2)c2cnc(NC3CCN(S(=O)(=O)N4CC5(CCCN(C6CCN(c7cccc8c7n(C)c(=O)n8C7CCC(=O)NC7=O)CC6)C5)C4)CC3)nc21 (stereo not shown) . State its measured DC50.
3.23

Specify reported DC50 for the compound shown: CC1CCCC1N1C(=O)C2(CC2)c2cnc(NC3CCN(S(=O)(=O)C4CCN(C(=O)CCCCCCCc5ccc6c(c5)n(C)c(=O)n6C5CCC(=O)NC5=O)C4)CC3)nc21 (stereo not shown)
21
